Entry source: patent US20230272010A1

Quick reference for IC50 among some compounds
assay: in vitro; type: cell-based, human; details: human
Residues, ends and D or L forms follow the SMILES beside them.
The reply should contain only the number, in µg/mL.

COMPOUND | UNIT ABBREV | IC50
CCCCCCCCCCCC1CC(=O)N[C@H](CC(C)C)C(=O)N[C@H](CN)C(=O)N[C@@H](C(C)C)C(=O)N[C@@H](CO)C(=O)N[C@@H]([C@@H](C)CC)C(=O)N1 (stereo partly drawn) [SyCPA 116, collimosyn] (HELM PEPTIDE1{I.[CCCCCCCCCCCC(CC(=O)[*:2])N[*:1]].[dL].[NC[C@@H](N[*:1])C(=O)[*:2]].V.S}$PEPTIDE1,PEPTIDE1,1:R1-6:R2$$$V2.0) | µg/mL | 11

Could you now look at the following compound, please?
// IC50 lookup, key: CCCCCCCCCCCCCC(=O)N[C@@H]1CNC(=O)[C@@H]2CCCN2C(=O)[C@H](Cc2ccccc2)NC(=O)[C@@H](C(C)C)NC(=O)[C@H](C)NC(=O)[C@@H](CCC(N)=O)NC(=O)[C@H]2CCCN2C1=O [SyCPA 2] (HELM PEPTIDE1{[CCCCCCCCCCCCCC(=O)[*:2]].[O=C([C@@H](CN[*:3])N[*:1])[*:2]].[dP].[dQ].A.[dV].F.P}$PEPTIDE1,PEPTIDE1,2:R3-8:R2$$$V2.0)
16
